# systemUnderTest: human TLR8 (Homo sapiens)
# Construct: expressed in transfected cells
# Sequence (Q9NR97 27-1041): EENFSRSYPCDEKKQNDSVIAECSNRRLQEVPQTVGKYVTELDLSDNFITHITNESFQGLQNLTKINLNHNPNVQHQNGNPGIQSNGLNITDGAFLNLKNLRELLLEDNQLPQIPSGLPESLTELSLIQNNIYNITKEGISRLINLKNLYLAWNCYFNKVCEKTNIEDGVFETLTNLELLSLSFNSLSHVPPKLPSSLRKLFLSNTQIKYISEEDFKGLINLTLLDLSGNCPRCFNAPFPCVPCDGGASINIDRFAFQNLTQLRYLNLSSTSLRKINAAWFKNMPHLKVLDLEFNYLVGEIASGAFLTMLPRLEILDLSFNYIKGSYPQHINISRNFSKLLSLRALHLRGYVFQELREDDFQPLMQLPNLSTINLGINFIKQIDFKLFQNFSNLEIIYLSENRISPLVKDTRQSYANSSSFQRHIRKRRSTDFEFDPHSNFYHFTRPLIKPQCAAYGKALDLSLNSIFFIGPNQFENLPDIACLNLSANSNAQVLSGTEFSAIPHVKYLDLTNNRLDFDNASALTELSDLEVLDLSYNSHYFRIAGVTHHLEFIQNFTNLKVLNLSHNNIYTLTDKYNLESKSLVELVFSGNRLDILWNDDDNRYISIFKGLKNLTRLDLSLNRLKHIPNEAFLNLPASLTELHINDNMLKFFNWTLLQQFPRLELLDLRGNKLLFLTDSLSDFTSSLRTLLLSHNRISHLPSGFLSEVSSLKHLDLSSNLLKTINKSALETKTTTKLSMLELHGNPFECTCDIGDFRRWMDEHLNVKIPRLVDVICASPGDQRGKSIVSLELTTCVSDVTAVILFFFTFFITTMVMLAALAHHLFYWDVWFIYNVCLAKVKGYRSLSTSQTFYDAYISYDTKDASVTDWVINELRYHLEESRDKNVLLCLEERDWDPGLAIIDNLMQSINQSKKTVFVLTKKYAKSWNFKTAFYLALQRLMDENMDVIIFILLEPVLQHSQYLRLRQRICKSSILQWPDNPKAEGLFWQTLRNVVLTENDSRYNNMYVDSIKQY
# assayOverview: HEK-Blue hTLR8 SEAP reporter gene inhibition assay
# Type: cell-based
# conditionInfo: HEK-Blue hTLR8 IC50 (µM)
Assign IC50 to each entry below.

Here's what some known entries look like.
[[record]]
compound = "C[C@@H]1CN(c2ccc(C#N)n3ncc(F)c23)Cc2c3c(nn21)CN(C1CC2(COC2)C1)[C@@H](C)C3 [Example I-135]"
propertymeasured = "IC50"
measured = "< 0.1 µM"

[[record]]
compound = "C[C@@H]1CN(c2ccc(C#N)n3ncc(F)c23)Cc2c3c(nn21)CNC(CCOC(C)(C)C)C3 (stereo partly drawn) [Example I-61]"
propertymeasured = "IC50"
measured = "> 0.1 µM"

[[record]]
compound = "C[C@@H]1CN(c2ccc(C#N)n3ncc(F)c23)Cc2c3c(nn21)CN(CCC#N)[C@@H](C)C3 [Example I-129]"
propertymeasured = "IC50"
measured = "< 0.1 µM"


Report IC50 for each item below.
1. C[C@@H]1CN(c2ccc(C#N)n3ncc(F)c23)Cc2c3c(nn21)CN[C@H](CO)C3 [Example I-43]
2. C[C@@H]1CN(c2ccc(C#N)n3ncc(F)c23)Cc2c3c(nn21)CN1C(=O)OC[C@@H]1C3 [Example I-95]
3. C[C@@H]1CN(c2ccc(C#N)n3ncc(F)c23)Cc2c3c(nn21)CN(Cc1ccn[nH]1)CC3 [Example I-29]

Response:
1: < 0.1 µM; 2: > 0.1 µM; 3: < 0.1 µM

Numbers sourced from patent EP4644396A1.
